Catalogue of compounds with associated IC50
Target: μ and κ2 receptor
Assay: Displacement of [^3 H]CycloFOXY, μ and κ2 receptor binding, rat brain lysed-P2 membranes
A complete answer gives the number and then names the unit.

Incoming: Request - read-out IC50 | tested on μ and κ2 receptor | compound Oc1ccc2c3c1O[C@H]1[C@H](Br)CC[C@@]4(O)[C@@H](C2)N(CC2CC2)CC[C@]314 [CycloBROXY, reference compound]
Outgoing: 3.14 nM

Incoming: Request - read-out IC50 | tested on μ and κ2 receptor | compound Oc1ccc2c3c1O[C@H]1[C@@H](I)CC[C@@]4(O)[C@@H](C2)N(CC2CC2)CC[C@]314 [EpilOXY]
Outgoing: 4.34 nM

Incoming: Request - read-out IC50 | tested on μ and κ2 receptor | compound Oc1ccc2c3c1O[C@H]1[C@H](I)CC[C@@]4(O)[C@@H](C2)N(CC2CC2)CC[C@]314 [IOXY]
Outgoing: 0.77 nM

---

Target: μ and κ2 receptor
Experiment: Displacement of [^3 H]CycloFOXY, μ and κ2 receptor binding, rat brain lysed-P2 membranes
Catalogue of compounds with associated Ki
Give the number; nM is assumed, so skip it.

Consider the worked cases shown below.
{"columns": ["compound", "Ki [nM]"],
 "data": [
  ["Oc1ccc2c3c1O[C@H]1[C@@H](I)CC[C@@]4(O)[C@@H](C2)N(CC2CC2)CC[C@]314 [EpilOXY]", 1.65],
  ["Oc1ccc2c3c1O[C@H]1[C@H](Br)CC[C@@]4(O)[C@@H](C2)N(CC2CC2)CC[C@]314 [CycloBROXY, reference compound]", 1.19]
]}

Incoming: For the compound shown here, Oc1ccc2c3c1O[C@H]1[C@H](I)CC[C@@]4(O)[C@@H](C2)N(CC2CC2)CC[C@]314 , give the reported Ki.
Outgoing: 0.29

---

Molecular target: μ and κ2 receptor
Test: Displacement of [^3 H]CycloFOXY, μ and κ2 receptor binding, rat brain lysed-P2 membranes
Conditions: [^3 H]CycloFOXY; read-out: Kd of radioligand
assay-metric: pKd
pKd here: minus log base 10 of the concentration, concentration in moles per litre.

Incoming: For the compound shown here, Oc1ccc2c3c1O[C@H]1[C@H](F)CC[C@@]4(O)[C@@H](C2)N(CC2CC2)CC[C@]314 [[^3 H]CycloFOXY, reference compound] , give the reported pKd.
Outgoing: 9.10

---

Here we list compounds with their recorded pKi when tested on UniProtKB P33535.
Sequence (P33535 whole entry): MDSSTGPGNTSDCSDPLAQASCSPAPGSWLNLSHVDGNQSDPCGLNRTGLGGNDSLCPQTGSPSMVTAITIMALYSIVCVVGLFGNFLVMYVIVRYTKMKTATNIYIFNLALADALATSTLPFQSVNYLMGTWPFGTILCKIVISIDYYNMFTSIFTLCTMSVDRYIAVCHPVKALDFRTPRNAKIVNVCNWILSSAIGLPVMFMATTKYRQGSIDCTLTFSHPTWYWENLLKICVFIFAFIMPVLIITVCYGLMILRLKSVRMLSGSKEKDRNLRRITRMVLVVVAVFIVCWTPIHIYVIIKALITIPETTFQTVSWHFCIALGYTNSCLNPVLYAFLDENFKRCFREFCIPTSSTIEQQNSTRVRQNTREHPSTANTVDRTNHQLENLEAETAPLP
pKi here: minus log base 10 of the concentration, concentration in moles per litre.

Consider the worked cases shown below.
{"columns": ["compound", "observed-value"],
 "data": [
  ["Oc1ccc2c3c1O[C@H]1[C@H](Br)CC[C@@]4(O)[C@@H](C2)N(CC2CC2)CC[C@]314 [CycloBROXY, reference compound]", 8.91],
  ["Oc1ccc2c3c1O[C@H]1[C@H](I)CC[C@@]4(O)[C@@H](C2)N(CC2CC2)CC[C@]314 [IOXY]", 9.10]
]}

--- query ---
Incoming: Request - read-out pKi | tested on UniProtKB P33535 | compound Oc1ccc2c3c1O[C@H]1[C@@H](I)CC[C@@]4(O)[C@@H](C2)N(CC2CC2)CC[C@]314 [EpilOXY]
Outgoing: 8.68

---

Target: UniProtKB P33535
assay-metric: IC50 (nM)
Give the number; nM is assumed, so skip it.

{"columns": ["molecule", "assay-metric", "unit-tag", "observed-value"],
 "data": [
  ["Oc1ccc2c3c1O[C@H]1[C@@H](I)CC[C@@]4(O)[C@@H](C2)N(CC2CC2)CC[C@]314 [EpilOXY]", "IC50", "nM", 7.16]
]}

Incoming: For the molecule shown here, Oc1ccc2c3c1O[C@H]1[C@H](I)CC[C@@]4(O)[C@@H](C2)N(CC2CC2)CC[C@]314 , give the reported IC50.
Outgoing: 2.74

Incoming: For the molecule shown here, Oc1ccc2c3c1O[C@H]1[C@H](Br)CC[C@@]4(O)[C@@H](C2)N(CC2CC2)CC[C@]314 [CycloBROXY, reference compound] , give the reported IC50.
Outgoing: 4.21

The origin of these recorded values is patent US5336483A.
